Hey, just so you know, these numbers are from patent US20220242958A1.

# tested_target: human CXCR4 (on cells, membrane extracts or viral lipoparticles) (human, UniProt P61073 1-352)
# Sequence (P61073 whole entry): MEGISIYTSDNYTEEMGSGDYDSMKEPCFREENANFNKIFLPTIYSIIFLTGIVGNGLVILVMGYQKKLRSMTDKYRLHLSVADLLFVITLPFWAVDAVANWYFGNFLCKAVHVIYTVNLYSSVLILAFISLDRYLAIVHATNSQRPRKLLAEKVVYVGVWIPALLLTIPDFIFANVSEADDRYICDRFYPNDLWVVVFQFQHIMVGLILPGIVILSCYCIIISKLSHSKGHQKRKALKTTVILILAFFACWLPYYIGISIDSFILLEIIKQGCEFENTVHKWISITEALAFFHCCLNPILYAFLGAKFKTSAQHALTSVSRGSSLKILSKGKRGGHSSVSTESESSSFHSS
# experiment_notes: cell-based or functional assay
readout_type: IC50, CXCL-12 induced chemotaxis, Jurkat E6-1 (nM)
// note: answer is a bare numeric in nM

Give the reported IC50, CXCL-12 induced chemotaxis, Jurkat E6-1 for this binder. 14D09-55A01 (4CXCR014D09(Q108L)-35GS-A0110055A01) (bispecific antibody, the entry carries a c-myc-His6 tag; also made as Flag3-His6-tagged protein; also called CXCR4#1-CD123#2; BI#7/19) EVQLVESGGGLVQAGGSLRLSCVASGISSSKRNMGWYRQAPGKQRESVATISSGGNKDYTDAVKDRFTISRDTTKNTVYLQMNSLKPEDTAVYYCKIEAGTGWATRRGYTYWGQGTLVTVSSGGGGSGGGGSGGGGSGGGGSGGGGSGGGGSGGGGSEVQLVESGGGSVQAGGSLRLSCTTSGRALNMYVMGWFRQAPGNEREFVAATSSSGGSTSYPDSVKGRFTISRDNAKNTVYLQMNSLKPEDTAAYRCAASPYVSTPTMNILEEYRYWGQGTLVTVSSAAAEQKLISEEDLNGAAHHHHHH
12
